Each entry below lists one item and its recorded IC50 value.
- TARGET_SYSTEM: Polyadenylate-binding protein 1 (Homo sapiens)
- Sequence (P11940 whole entry): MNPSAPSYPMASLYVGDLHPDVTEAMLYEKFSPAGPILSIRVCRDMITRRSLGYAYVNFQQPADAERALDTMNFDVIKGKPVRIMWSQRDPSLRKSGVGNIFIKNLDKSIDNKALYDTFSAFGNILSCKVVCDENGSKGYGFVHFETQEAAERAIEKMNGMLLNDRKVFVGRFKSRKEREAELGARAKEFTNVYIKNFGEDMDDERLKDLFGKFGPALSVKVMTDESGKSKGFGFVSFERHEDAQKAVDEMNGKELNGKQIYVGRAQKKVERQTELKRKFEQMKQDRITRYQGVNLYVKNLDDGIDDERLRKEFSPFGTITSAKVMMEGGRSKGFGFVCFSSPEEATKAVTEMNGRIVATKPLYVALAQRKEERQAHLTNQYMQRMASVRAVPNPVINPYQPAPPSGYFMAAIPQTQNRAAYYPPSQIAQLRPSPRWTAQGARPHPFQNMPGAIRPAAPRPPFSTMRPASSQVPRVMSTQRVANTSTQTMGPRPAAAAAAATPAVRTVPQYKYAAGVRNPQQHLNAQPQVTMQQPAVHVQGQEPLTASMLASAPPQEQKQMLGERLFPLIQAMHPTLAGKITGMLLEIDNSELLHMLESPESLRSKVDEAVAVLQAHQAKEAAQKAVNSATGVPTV
- PROTOCOL_DETAILS: blockers of PABP interaction with poly(A) – biochemical, fluorescence polarization, uHTS, primary screen (AID 2014)
All answers are understood in µM, so give the number only.

CC[N+](C)(CC)CCCC(N=O)C(O)(c1ccccc1)c1ccccc1 (centres undefined); 5.57
O=C1N=c2ccccc2=C1NNC(=O)c1cc(-c2cccs2)n[nH]1; 28.8
CC1(C)Oc2ccc3ccc(=O)oc3c2C(CN=O)=C1Cl; 10.3

// below: IC50 requested for another compound
The compound identified as COc1ccc(CN=Nc2nc(O)c(CC(=O)O)s2)cc1OCc1ccc(Cl)cc1Cl registered its IC50 at 64.3
